Study the reported pIC50 values for RAC-gamma serine/threonine-protein kinase (Homo sapiens, UniProt Q9Y243) given below; they originate from different publications.
pIC50: −log10 of the molar value.

                                   compound                           measured_target  quantity_name  result_value
0  CC(C)OCc1cnn(C)c1-c1ccc2c(c1)CN([C@H](CN)Cc1cc(F)cc(F)c1)C2=O  RAC-gamma serine/threonine-protein kinase (Homo sapiens, UniProt Q9Y243)          pIC50        > 6.30
1  CCCOCc1cnn(C)c1-c1cc2c(cn1)C(=O)N([C@H](CN)Cc1cccc(F)c1)C2  RAC-gamma serine/threonine-protein kinase (Homo sapiens, UniProt Q9Y243)          pIC50        > 6.30
2  N#CCN1C(=O)C(CCO)Oc2nc(-c3ccc(C4(N)CCC4)cc3)c(-c3ccccc3)cc21 (stereo not drawn)  RAC-gamma serine/threonine-protein kinase (Homo sapiens, UniProt Q9Y243)          pIC50        < 5.00
3  Cn1nccc1-c1ccc2c(c1)CN([C@H](CN)Cc1cccs1)C2=O  RAC-gamma serine/threonine-protein kinase (Homo sapiens, UniProt Q9Y243)          pIC50        > 6.30
4  NC[C@H](Cc1cccc(F)c1)NC(=O)c1cc2c(s1)CCCn1ncc(Cl)c1-2  RAC-gamma serine/threonine-protein kinase (Homo sapiens, UniProt Q9Y243)          pIC50          7.68
5  NCc1ccc(-c2nc3c(cc2-c2ccccc2)N(CC(F)(F)F)C(=O)CO3)cc1  RAC-gamma serine/threonine-protein kinase (Homo sapiens, UniProt Q9Y243)          pIC50        < 5.00
6  C[C@@H]1CC(=O)Nc2ncnc(N3CC4CCC(C3)N4C(=O)[C@H](CNC3CC3)c3ccc(Cl)cc3)c21  RAC-gamma serine/threonine-protein kinase (Homo sapiens, UniProt Q9Y243)          pIC50          9.55
7  Cn1ncc(-c2ccncc2)c1-c1ccc2c(c1)CN([C@H](CN)Cc1cccc(F)c1)C2=O  RAC-gamma serine/threonine-protein kinase (Homo sapiens, UniProt Q9Y243)          pIC50  5.30 to 6.30

pIC50 for RAC-gamma serine/threonine-protein kinase (Homo sapiens, UniProt Q9Y243) with input CC(=O)Nc1cccc(-c2cnc3[nH]cc(C(=O)c4cc(O)ccc4F)c3c2)c1 equals ≥ 5.00
